This listing pairs binders with measured Neutralization of infectious viruses (IC50).
target: H9 HA A/ck/HK/G9/97 (on infectious virus) (influenza A virus A/ck/HK/G9/97 (H9N2)); experiment: cell-based or functional assay
Measurement Name: Neutralization of infectious viruses (IC50) (µg/mL)

INSERT INTO measurements (binder, units_text, experimental_value) VALUES
  ('FE53 (antibody, V domains shown) VH: QVQLVQSGAEVKKPGSSVKVSCKASGVTSSNYPITWVRQAPGQGLEWMGGVLPLFGVTNYAQKFQGRVTISADKSTNTAYMELSSLRSEDTAVYYCARGKRPGYCSGGVCSSDYWGQGTLVTVSS VL: DIQMTQSPSSLSASVGDRVSITCQASQDISRYLNWYQQKPGEAPKLLIYDASNLETGVPSRFSGSGSGTDFTFTISSLQPEDIATYFCQQYGYLPLTFGPGTKVDSK', 'µg/mL', 2),
  ('FE43 (antibody, V domains shown) VH: QVHLVQSGAEVKKPGSSVRLSCSASGGPFSGFAISWLRQAPGQGLEWLGGISAVFGTATYAQKFQGRVTITADQFTSTSHMDLSRLTYDDTAVYYCARSGGYLPQNNWIDPWGQGTLVIVSS VL: DIVMTQTPLSLSVTPGQPASISCKSSQSLLHSDGKTYLYWYLQKPGQSPQLLIYEVSNRFSGVPDRFSGSGSGTDFTLKISRVEAEDVGVYYCMQNILLPLTFGGGTKVEIK', 'µg/mL', 4),
  ('FC6 (antibody, V domains shown) VH: QGQLVQSGAEVKKSGSSVKVSCKTSGGTFNSHAISWVRQAPGQGLEWIGGIIPMFGTTNYAQKLKGRIAITADQLPTTAYLELSSLRSEDTAVYYCARGQRYYYDRDGMDVWGQGTMVTVSS VL: EIVMTQTPLSLSVTPGQPASISCRSSQSLLHSDGKTYLYWYLQKPGQPPQLLISEVFNRFSGVPDRFSGSGSGTDFTLKISRVEAEDVGVYYCMQSLQLPLTFGGGTKVEIK', 'µg/mL', 9),
  ('FB139 (antibody, V domains shown) VH: QVQLVQSGAEVKKAGSSVKVSCQSSGVTFSMYAVSWVRQAPGQGLEWMGGIIPLFGTTTYAQKFEGRLTITADTSTNMAYLELRSLRSEDTAVYFCARAGTTVTRFNWFDPWGQGTLVTVSS VL: EVVLTQSPGTLSLSPGQRATLSCRASQSVSSSYLAWYQQKPGQAPRLLIYDASNRATGIPDRFSGSGSGTDFTLTISRLEPEDFAVYYCQQYGSSPYTFGQGTKLEIK', 'µg/mL', 6);

The reported numbers originate from patent US20100086555A1.
